Items are presented alongside their recorded MBP.
Test system: Canis familiaris
Experiment: Antiarrhythmic property Mean blood pressure(post drug) is compared to Lidocaine using doses(3 and 6 mg/kg)
Assay type: functional, Canis lupus familiaris
Express the result in mmHg but write the number alone.

Recorded MBP for CC(C)N1CC2CN(C(C)C)CC(C1)C21SCCS1 , please?
76

What MBP value was documented for this compound, c1ccc(CN2CC3CSCC(C3)C2)cc1 ?
120

// returns reported MBP for input Cl.c1ccc(CN2CC3CSCC(C3)C2)cc1
105

Given c1ccc(CN2CC3CN(CC4CC4)CC(C2)C32SCCS2)cc1 , state its recorded MBP.
105

====

Overview of reported HR across a group of compounds:
Test system: Canis familiaris
Test: Tested for antiarrhythmic property by measuring ability to decrease heart rate(drug free) is compared to Lidocaine using doses (3 and 6 mg/kg).
Assay type: functional, Canis lupus familiaris
Lab book: enter the figure in beats min-1, no units written.

Worked examples follow.
| STRUCTURE | PARAMETER | REPORTED RESULT |
| --- | --- | --- |
| CC(C)N1CC2CC(CN(C(=O)c3ccc(NS(C)(=O)=O)cc3)C2)C1.Cl | HR | 150 |
| CC(C)N1CC2CC(CN(C(=O)c3ccc(-n4ccnc4)cc3)C2)C1 | HR | 148 |
| CC(C)N1CC2CC(CN(C(=O)c3ccc([N+](=O)[O-])cc3)C2)C1.Cl | HR | 130 |
| c1ccc(CN2CC3CC(C2)CN(CC2CC2)C3)cc1 | HR | 130 |

# ---- query compound ----
Which HR value belongs to CC(C)N1CC2CC(CN(C(=O)c3ccc(N)cc3)C2)C1.Cl.Cl ?
130

Value source: ChEMBL document CHEMBL1129356
